Experiment: qHTS Screen for Compounds that Selectively Target Cancer Cells with p53 Mutations: Cytotoxicity of p53ts Cells at the Permissive Temperature; further: nearly all actives have a fitted effect of over 55% in size; further: potency means the concentration at half of the fitted maximal effect
Applied Conditions: H1299-p53A138V at 32C, ATP luminescence viability, 24 h; series mostly up to 46.1 µM
The whole screen tested about 130,000 compounds, of which about 1,200 (0.92%) were called active. Another 3% or so got no clear call; they are omitted. This is one part of a sample in which actives are shown more often than they occur.
Property Label: Potency

>  <Compound>
COc1ccc(NC(=O)Nc2cccc3cccnc23)cc1

>  <Property Label>
Potency

>  <Result>
12.6 µM (active)

$$$$
>  <Compound>
Cc1cccc(Cn2cccc(C(=O)Nc3ccc4c(c3)OCCO4)c2=O)c1

>  <Property Label>
Potency

>  <Result>
inactive

$$$$
>  <Compound>
CN(C)c1cccc(C(=O)Nc2nc3ccc(S(=O)(=O)NC(C)(C)C)cc3s2)c1

>  <Property Label>
Potency

>  <Result>
inactive

$$$$
>  <Compound>
CCN1C[C@]2(COC)C(O)C[C@H](OC)[C@@]34C5C[C@]6(O)C(OC)C(O)[C@](OC(C)=O)(C5C6OC(=O)c5ccccc5)C(C(OC)C23)C14 (stereo partly drawn)

>  <Property Label>
Potency

>  <Result>
inactive

$$$$
>  <Compound>
CC(C)Oc1ccc(NC(=O)c2cc3ccccc3o2)cc1

>  <Property Label>
Potency

>  <Result>
6.31 µM (active)

$$$$

### Prompt Potency for CC[C@@H]1CN2CC[C@@H]1C[C@H]2[C@H](O)c1ccnc2ccc(OC)cc12 ?
### Response inactive

### Prompt Potency for Cn1cc(/C=C/c2nc3ccccc3c(=O)n2-c2ccccc2)c2ccccc21 ?
### Response inactive

### Prompt Potency for CC(C)(c1ccc(OC[C@@H]2CO2)cc1)c1ccc(OC[C@H]2CO2)cc1 ?
### Response 12.6 µM (active)
